Source: ChEMBL document CHEMBL3870311

protocolNotes: Cytotoxicity against human HCT15 cells assessed as reduction in cell growth after 72 hrs by CCK8 assay
Type: functional, cell-based
conditionDetails: HCT-15, 72 h
Answer each item with its documented pIC50.
Numbers only, as −log10 of the molar value.

Field: pIC50. Fill in for each record below.
1. CCCCOc1cc(OCC2CO2)cc2oc3ccccc3c(=O)c12 (stereo unspecified)
2. CCCCCOc1cc(OCC(O)CNCCCC)cc2oc3ccccc3c(=O)c12 (stereo unspecified)
3. COc1ccc(COc2cc(OCC3CO3)cc3oc4c(OC)cccc4c(=O)c23)cc1 (stereo unspecified)
4. CCCCNCC(O)COc1cc(OCCCC)c2c(=O)c3ccccc3oc2c1 (stereo unspecified)
5. CCCCNCC(O)COc1cc(OCCc2cccc(Cl)c2)c2c(=O)c3ccccc3oc2c1 (stereo unspecified)

Response:
[5.61, 5.34, 6.38, 5.06, 5.64]

###

measuredOn: DNA topoisomerase 2-alpha (Homo sapiens, UniProt P11388)
Sequence (P11388 whole entry): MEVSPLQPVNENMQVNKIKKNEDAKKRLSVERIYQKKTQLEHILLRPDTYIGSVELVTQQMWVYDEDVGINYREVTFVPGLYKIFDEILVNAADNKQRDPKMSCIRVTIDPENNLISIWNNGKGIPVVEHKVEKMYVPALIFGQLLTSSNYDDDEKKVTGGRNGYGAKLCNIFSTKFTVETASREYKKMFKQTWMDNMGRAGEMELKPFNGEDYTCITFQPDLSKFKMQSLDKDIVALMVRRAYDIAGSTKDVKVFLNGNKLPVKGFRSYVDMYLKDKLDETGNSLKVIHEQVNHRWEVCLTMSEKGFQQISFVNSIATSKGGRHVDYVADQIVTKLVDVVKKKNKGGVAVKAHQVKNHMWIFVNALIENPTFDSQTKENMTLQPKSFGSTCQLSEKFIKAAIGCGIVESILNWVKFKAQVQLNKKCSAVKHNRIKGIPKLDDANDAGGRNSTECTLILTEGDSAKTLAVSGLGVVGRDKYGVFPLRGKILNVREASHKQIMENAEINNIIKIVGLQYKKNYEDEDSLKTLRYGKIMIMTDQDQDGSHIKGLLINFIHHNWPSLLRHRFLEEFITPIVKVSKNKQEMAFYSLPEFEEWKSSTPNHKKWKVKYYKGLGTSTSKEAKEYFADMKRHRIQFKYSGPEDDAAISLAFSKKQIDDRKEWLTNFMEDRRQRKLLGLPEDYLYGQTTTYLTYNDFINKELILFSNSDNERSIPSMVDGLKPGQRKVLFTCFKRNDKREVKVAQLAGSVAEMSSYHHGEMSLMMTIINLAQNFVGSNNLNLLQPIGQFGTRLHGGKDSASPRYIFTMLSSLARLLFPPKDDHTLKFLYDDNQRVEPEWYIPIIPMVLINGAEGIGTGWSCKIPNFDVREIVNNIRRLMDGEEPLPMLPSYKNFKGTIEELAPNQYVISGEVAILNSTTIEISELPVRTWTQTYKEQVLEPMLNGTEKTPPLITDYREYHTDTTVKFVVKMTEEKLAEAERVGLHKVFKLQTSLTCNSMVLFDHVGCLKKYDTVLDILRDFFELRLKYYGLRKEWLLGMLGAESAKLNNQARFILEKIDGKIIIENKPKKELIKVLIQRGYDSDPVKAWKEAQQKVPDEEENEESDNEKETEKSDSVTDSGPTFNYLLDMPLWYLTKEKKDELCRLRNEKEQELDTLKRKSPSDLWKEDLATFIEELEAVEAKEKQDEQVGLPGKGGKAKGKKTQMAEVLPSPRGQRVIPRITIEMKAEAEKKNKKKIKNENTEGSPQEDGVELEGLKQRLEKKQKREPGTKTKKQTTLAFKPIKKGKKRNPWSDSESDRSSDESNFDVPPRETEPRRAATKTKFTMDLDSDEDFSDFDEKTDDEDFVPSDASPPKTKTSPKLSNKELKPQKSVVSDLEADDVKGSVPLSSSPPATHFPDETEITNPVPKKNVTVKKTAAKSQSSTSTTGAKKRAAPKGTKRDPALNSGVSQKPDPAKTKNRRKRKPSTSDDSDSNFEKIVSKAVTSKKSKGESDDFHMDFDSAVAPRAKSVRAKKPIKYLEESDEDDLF
protocolNotes: Inhibition of human topoisomerase-2 alpha at 20 uM using supercoiled pBR322 DNA as substrate after 30 mins by agarose gel electrophoresis relative to control
Provide the reported inhibition of each item.

- compound: "COc1cc([C@@H]2c3cc4c(cc3[C@@H](O[C@@H]3O[C@@H]5CO[C@@H](C)O[C@H]5[C@H](O)[C@H]3O)[C@H]3COC(=O)[C@H]23)OCO4)cc(OC)c1O [ETOPOSIDE]"
  inhibition: "45.6%"
- compound: "CCCCNCC(O)COc1cc(OCc2ccccc2)c2c(=O)c3ccccc3oc2c1 (stereo not given)"
  inhibition: "22.2%"
- compound: "CCCCCOc1cc(OCC(O)CNCCCC)cc2oc3c(OC)cccc3c(=O)c12 (stereo not given)"
  inhibition: "9.5%"
- compound: "CCCCNCC(O)COc1cc(OCc2cccc(C(F)(F)F)c2)c2c(=O)c3cccc(OC)c3oc2c1 (stereo not given)"
  inhibition: "14.2%"
- compound: "CCCCNCC(O)COc1cc(OCc2cccc(Cl)c2)c2c(=O)c3ccccc3oc2c1 (stereo not given)"
  inhibition: "22.4%"
- compound: "CCCCNCC(O)COc1cc(OCCc2cccc(Cl)c2)c2c(=O)c3cccc(OC)c3oc2c1 (stereo not given)"
  inhibition: "20.4%"

Consider the following items and state reported inhibition for each.
1. CCCCNCC(O)COc1cc(OCc2cccc(OC)c2)c2c(=O)c3cccc(OC)c3oc2c1 (stereo not given)
2. CCCCNCC(O)COc1cc(OCc2ccccc2)c2c(=O)c3cccc(OC)c3oc2c1 (stereo not given)
3. CCCCNCC(O)COc1cc(OCc2cccc(OC)c2)c2c(=O)c3ccccc3oc2c1 (stereo not given)
4. CCCCNCC(O)COc1cc(OCCc2ccc(Cl)cc2)c2c(=O)c3ccccc3oc2c1 (stereo not given)

Response:
1. 12.4%
2. 11.1%
3. 19.5%
4. 23 to 23.3%

###

protocolNotes: Cytotoxicity against human HCT15 cells assessed as reduction in cell growth after 72 hrs by CCK8 assay
Format: functional, cell-based
conditionDetails: HCT-15, 72 h
Each record is given rule met if its reported IC50 is strictly below 2000 nM. Records at or above 2000 nM are given rule not met.

Example entries begin here.
- compound: "CC(C)Oc1cc(OCC2CO2)cc2oc3ccccc3c(=O)c12 (stereo not given)"
  discreteLabel: "rule met"
- compound: "CCCCNCC(O)COc1cc(OCCc2cccc(Cl)c2)c2c(=O)c3cccc(OC)c3oc2c1 (stereo not given)"
  discreteLabel: "rule met"
- compound: "CCCCNCC(O)COc1cc(OCc2cccc(Cl)c2)c2c(=O)c3cccc(OC)c3oc2c1 (stereo not given)"
  discreteLabel: "rule met"
- compound: "CCCCOc1cc(OCC2CO2)cc2oc3c(OC)cccc3c(=O)c12 (stereo not given)"
  discreteLabel: "rule met"
- compound: "CCCCNCC(O)COc1cc(OCc2cccc(C(F)(F)F)c2)c2c(=O)c3ccccc3oc2c1 (stereo not given)"
  discreteLabel: "rule not met"

Query: Could you please tell me whether IC50 recorded for CCOc1cc(OCC2CO2)cc2oc3c(OC)cccc3c(=O)c12 (stereo not given) is less than 2000 nM?
Response: rule met

Query: Determine if CCOc1cc(OCC2CO2)cc2oc3ccccc3c(=O)c12 (stereo not given) shows IC50 strictly lower than 2000 nM.
Response: rule not met

Query: Could you please tell me whether IC50 recorded for CCCCNCC(O)COc1cc(OCc2cccc(OC)c2)c2c(=O)c3ccccc3oc2c1 (stereo not given) is less than 2000 nM?
Response: rule met

Query: IC50 under 2000 nM? Item: COc1cccc2c(=O)c3c(OCc4cccc(C(F)(F)F)c4)cc(OCC4CO4)cc3oc12 (stereo not given)
Response: rule met

Query: Determine if COc1cccc2c(=O)c3c(OCc4cccc(Cl)c4)cc(OCC4CO4)cc3oc12 (stereo not given) shows IC50 strictly lower than 2000 nM.
Response: rule met
